# Test system: SF-539
# method-summary: NCI tumour cell line growth inhibition, 48 h
Activity calls are given as the source filed them. Cut-off read from the data, not from the text of the source: active = GI50 up to about 1.1 µM and inactive = higher.
Select the correct class. Options are active, inactive and nothing else.

Known results for compounds:
| compound | class-name |
| --- | --- |
| CCN(C(=O)N[C@@H](Cc1ccccc1)C(=O)N[C@@H](CC(C)C)C(=O)OC)c1ccccc1 | inactive |
| C#CCN(C)C(=O)N(CC#C)N=O | inactive |
| CC[C@@]1(O)C(=O)OCc2c1cc1n(c2=O)Cc2c-1nc1ccc(N)cc1c2CC[Si](C)(C)C | active |

Task: // outcome(item) with item = CC(=O)NC1C(O)C(O)C(CO)OC1n1ncc(=O)[nH]c1=O (stereo not given)
Output: inactive

Task: Another: CC(C)=CCC/C(C)=C/CC/C(C)=C/CCN(C)CCO
Output: inactive

###

# Tested on: KM12
# method-summary: NCI tumour cell line growth inhibition, 48 h
Active and inactive are the calls of the source. Rule as the data show it: active = GI50 up to about 1.1 µM and inactive = higher.
quantity-measured: GI50

These recorded examples may help you get a feel for the data.
| compound | GI50 |
| --- | --- |
| COc1ccc(N2C(=O)C3ON(Cc4ccc(CC(N)=O)cc4)C(c4c5ccccc5c(C)c5ccccc45)C3C2=O)cc1 (stereo not given) | 12.1 µM (inactive) |
| CC[C@]1(Cc2ccc(OC)c(OC)c2)C2CC(C(=O)OC)ON2O[C@H](OCc2ccccc2)[C@@H]1OC(C)=O (stereo not given in full) | > 100 µM (inactive) |
| c1cc(-c2csc(-c3ccsc3)c2)cs1 | 63.4 µM (inactive) |
| CC/C(=C\c1ccc(OC)cc1)c1ccc(OC)cc1 | > 100 µM (inactive) |
| CCN(C(=O)N[C@@H](Cc1ccccc1)C(=O)N[C@@H](CC(C)C)C(=O)OC)c1ccccc1 | 29.4 µM (inactive) |

Go through the list and state GI50 for each entry.
1. Cc1ccc(NC(=O)CC(=O)n2nc(-c3ccccc3)c(/N=N/c3ccccc3C(=O)O)c2-c2ccccc2)cc1
2. O=c1sc2c(s1)SSSSS2
3. O=S1(=O)c2ccccc2C(=NO)c2ccccc21
4. CN(C)CCNc1ccc2nnn3c4ccc(O)cc4c(=O)c1c23
5. Oc1ccc2ccccc2c1C(c1ccc(Cl)cc1)c1c(O)ccc2ccccc12

Output:
1. > 100 µM (inactive)
2. > 50 µM (inactive)
3. > 100 µM (inactive)
4. 2.32 µM (inactive)
5. 2.67 µM (inactive)

###

# Test system: RPMI-8226
# method-summary: NCI tumour cell line growth inhibition, 48 h
Calls of active or inactive are those of the source. Cut-off read from the data, not from the text of the source: active = GI50 up to about 1.1 µM and inactive = higher.
quantity-measured: GI50

These recorded examples may help you get a feel for the data.
| molecule | GI50 |
| --- | --- |
| CC(C)OP(=O)(OC(C)C)/C(=N/Nc1ccc([N+](=O)[O-])cc1)NNC(=O)c1ccccc1 | 29.7 µM (inactive) |
| COc1ccc(C(=O)/C=C/c2cc(O)c(O)c(F)c2F)c(OC)c1 | 8.83 µM (inactive) |
| N#C/C1=C(\N)CCSSSC1 | 44.8 µM (inactive) |

Go through the list and state GI50 for each entry.
1. C=CCOC(=O)Cn1cc(C)c(=O)[nH]c1=O
2. OCC1CCCCN1Cc1nc2cc(Cl)ccc2[nH]1 (centres undefined)
3. COc1ccc2c(c1)CCN1CCCc3ccccc3C21 (centres undefined)
4. COC(=O)NC1C(C)OC(OC2C/C=C(/C)C3C=CC4C(OC5CC(OC6CC(OC7CC(O)C(O)C(C)O7)C(OC7CC(O)C(OC)C(C)O7)C(C)O6)C(O)C(C)O5)C(C)CC(C)C4C3(C)C(=O)C3=C(O)C4(CC(C)C(CO)=CC4/C=C\2C)OC3=O)CC1(C)[N+](=O)[O-] (centres undefined)

Output:
1. > 100 µM (inactive)
2. > 100 µM (inactive)
3. 22.3 µM (inactive)
4. 1.6 µM (inactive)

Go through the list and state GI50 for each entry.
1. COc1ccc2c(=O)c(O)c(-c3ccc(OC)c(OC)c3)oc2c1
2. O=Cc1c(-c2ccccc2)nc2ccccc2c1O

Output:
4.09 µM (inactive)
34.7 µM (inactive)

###

# Test system: OVCAR-8
# method-summary: NCI tumour cell line growth inhibition, 48 h
Calls of active or inactive are those of the source. Cut-off read from the data, not from the text of the source: active = GI50 up to about 1.1 µM and inactive = higher.
quantity-measured: GI50

| smiles-structure | recorded-result |
| --- | --- |
| Nc1ccc(-c2nc3ccc(F)cc3s2)cc1 | 48.3 µM (inactive) |

Go through the list and state GI50 for each entry.
1. Cc1cccc2sc(-c3ccc(O)cc3)nc12
2. CC(C)=CCC/C(C)=C/CC/C(C)=C/CC/C(C)=C/C=C/C=C(\C)CC/C=C(\C)CC/C=C(\C)CCC=C(C)C
3. Nc1nc(N)nc(-c2ccccc2NS(=O)(=O)c2ccc([N+](=O)[O-])cc2)n1
4. COc1cc2c(c(OC)c1O)-c1ccc(OC)c(=O)cc1[C@@H](NC(=O)C(F)(F)F)CC2

Output:
16.7 µM (inactive)
> 63 µM (inactive)
40.1 µM (inactive)
0.243 µM (active)

###

# Test system: Hs-578T
# method-summary: NCI tumour cell line growth inhibition, 48 h
Activity calls are given as the source filed them. Rule as the data show it: active = GI50 up to about 1.1 µM and inactive = higher.
Select the correct class. Options are T (active), F (inactive) and nothing else.

Task: // outcome(item) with item = Cc1nc2n(c1/C=C1/C(=O)Nc3ccccc31)CCS2
Output: F

###

# Test system: U-251
# method-summary: NCI tumour cell line growth inhibition, 48 h
Calls of active or inactive are those of the source. Cut-off read from the data, not from the text of the source: active = GI50 up to about 1.1 µM and inactive = higher.
Select the correct class. Options are active, inactive and nothing else.

| compound | class-name |
| --- | --- |
| O=C1C(SCCO)=C(SCCO)C(=O)c2ccccc21 | active |
| Nc1c2ccccc2nc2ccc3c(=O)cc(-c4ccccc4)oc3c12 | active |
| COc1cc(-c2cc(O)c3ccccc3n2)cc(OC)c1OC | inactive |

Task: // outcome(item) with item = Oc1ccc(Cc2cc(Cl)cc(Cl)c2O)cc1Cl
Output: inactive

Task: Another: CC(=O)Oc1c(OC(C)=O)c(-c2ccc(O)c(O)c2)c(O)c(O)c1-c1ccc(O)cc1
Output: inactive

Task: Another: CCOc1ccccc1/C=C(/C#N)C(N)=O
Output: inactive

Task: Another: CN(C)CCNC(=O)c1cccc2c1nc(-c1ccccc1)c1ccccc12
Output: inactive

Task: Another: O=C(C#Cc1ccccc1)N1CCCCC1
Output: inactive

Task: Another: Cn1c(N)c(-c2c3ccccc3nc3ccccc23)c(=O)n(C)c1=O
Output: inactive

Task: Another: COc1cc(/C=C/C(=O)CC(=O)/C=C/c2ccc(OC(=O)CCCCC3CCSS3)c(OC)c2)ccc1OC(=O)CCCCC1CCSS1 (stereo unspecified)
Output: inactive

Task: Another: O=c1oc2cc(/N=C/c3ccccc3Cl)ccc2c2ccccc12
Output: inactive

###

# System: COLO 205
# method-summary: NCI tumour cell line growth inhibition, 48 h
Activity calls are given as the source filed them. Rule as the data show it: active = GI50 up to about 1.1 µM and inactive = higher.
Please provide measured GI50 for the entries that follow.

These recorded examples may help you get a feel for the data.
| compound | GI50 |
| --- | --- |
| Cc1ccc2c(c1C)C(=O)C1(Cc3cc4c(cc3C1=O)CCC4)C2 (stereo unspecified) | > 100 µM (inactive) |
| COc1ccc(C(=C(I)c2ccccc2)c2ccc(OC)cc2)cc1 | > 100 µM (inactive) |
| COC1=CC(=O)c2c(c(COC(C)=O)cn2C)C1=O | 0.0282 µM (active) |
| CC(=O)N(C)OC(=O)CC(=O)c1ccccc1 | > 100 µM (inactive) |
| CC1=C2CCCC2=C/C(=N/Nc2ccc([N+](=O)[O-])cc2[N+](=O)[O-])CC1 | > 100 µM (inactive) |
| CN(C(=O)/C=C/c1ccccc1)C1C2CN3CCC(O2)C13 (stereo unspecified) | > 100 µM (inactive) |
| COc1cc(CNc2ccc(SC)cc2)cc(OC)c1OC | 4.48 µM (inactive) |
| O=C(c1ccccc1)C(c1ccccc1)C1(O)C(=O)Nc2ccccc21 (stereo unspecified) | > 100 µM (inactive) |

Go through the list and state GI50 for each entry.
1. COc1c(-c2ccc(F)cc2)oc2c(CC(=O)O)cccc2c1=O
2. Cc1ccc(S(=O)(=O)n2cc(/C=C/C#N)c(/C=C/C#N)c2)cc1
3. Cn1c(=O)c2c(nc(N)n2C2OC(CO)C(O)C2O)n(C)c1=O (stereo unspecified)

Output:
> 100 µM (inactive)
> 100 µM (inactive)
> 100 µM (inactive)

###

# Tested on: IGROV-1
# method-summary: NCI tumour cell line growth inhibition, 48 h
The source made the active and inactive calls. No stated cut-off is given here; in the data, active = GI50 up to about 1.1 µM and inactive = higher.
Select the correct class. Options are T for active, F for inactive and nothing else.

Task: // outcome(item) with item = C[n+]1[n-]o/c(=N\N=O)c1-c1cc(-c2/c(=N/N=O)o[n-][n+]2C)cc(-c2/c(=N\N=O)o[n-][n+]2C)c1
Output: F

Task: Another: Cc1cc2c(s1)C(N)CC2=O (centres undefined)
Output: F

Task: Another: N#Cc1ccccc1Sc1ccccc1N
Output: F

Task: Another: C=Cc1nc2nnc(CCCCCCCCc3nnc4nc(C=C)[nH]n34)n2[nH]1
Output: F

Task: Another: CC(=O)N(C)OC(=O)CC(=O)c1ccccc1
Output: F

Task: Another: O=C(C/C(CCC(=O)N(Cc1ccccc1)Cc1ccccc1)=N/Nc1ccc([N+](=O)[O-])cc1[N+](=O)[O-])c1ccccc1
Output: F

Task: Another: c1ccc(C2=Nc3nc4ccccc4n3C(c3ccccc3)C2)cc1 (centres undefined)
Output: F
